- MEASUREMENT TARGET: T1, P6-AA-12HGe-D
- T1 chain: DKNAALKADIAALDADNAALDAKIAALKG
- ASSAY SUMMARY: two-hybrid library CCmax;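 further: natural log of median RNA to DNA barcode read ratio; higher means stronger binding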
- COND: mean of both orientations
MEASURE: interaction score
Give a plain numeric answer without units written out.

Recorded results for 3 binders are shown here.
{"BINDER": "DENAALEATIAALTATNAALTAEIAALEG [P5-AA-12HGe-T]", "interaction score": -1.71}
{"BINDER": "DENAALEAHIAALHAHNAALHAEIAALEG [P5-AA-12HGe-H]", "interaction score": -1.79}
{"BINDER": "DENAALEASIAALSASNAALSAEIAALEG [P5-AA-12HGe-S]", "interaction score": -1.45}

Now take the following binder into account.
Prompt: interaction score lookup needed for DENAALEAQIAALQAQNAALQAEIAALEG [P5-AA-12HGe-Q] , thanks.
Completion: -1.9
